molecular target: Sodium-dependent noradrenaline transporter (Homo sapiens, UniProt P23975)
Sequence (P23975 whole entry): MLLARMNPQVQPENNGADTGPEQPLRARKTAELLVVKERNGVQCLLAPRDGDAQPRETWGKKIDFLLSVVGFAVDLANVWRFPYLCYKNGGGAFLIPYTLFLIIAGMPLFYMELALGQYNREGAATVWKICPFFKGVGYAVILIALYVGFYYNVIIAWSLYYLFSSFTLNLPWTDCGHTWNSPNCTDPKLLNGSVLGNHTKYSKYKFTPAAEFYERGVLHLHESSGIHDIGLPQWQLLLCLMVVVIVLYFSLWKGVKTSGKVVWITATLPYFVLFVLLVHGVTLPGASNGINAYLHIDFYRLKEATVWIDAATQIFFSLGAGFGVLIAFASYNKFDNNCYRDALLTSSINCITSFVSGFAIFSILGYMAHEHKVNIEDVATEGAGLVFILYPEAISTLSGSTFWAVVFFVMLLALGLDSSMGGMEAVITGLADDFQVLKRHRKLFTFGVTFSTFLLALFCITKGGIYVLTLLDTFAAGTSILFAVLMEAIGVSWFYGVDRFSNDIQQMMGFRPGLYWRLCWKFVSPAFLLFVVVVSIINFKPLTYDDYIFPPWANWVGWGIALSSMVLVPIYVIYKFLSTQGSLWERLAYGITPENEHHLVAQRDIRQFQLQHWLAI
Metric name: IC50

Query: Output reported IC50 of the compound CNCC[C@@H](c1cccc(F)c1)N1C(=O)C2(CCCCC2)c2ccccc21 on Sodium-dependent noradrenaline transporter (Homo sapiens, UniProt P23975).
Response: > 3 µM

###

target: Sodium-dependent serotonin transporter (Homo sapiens, UniProt P31645)
Sequence (P31645 whole entry): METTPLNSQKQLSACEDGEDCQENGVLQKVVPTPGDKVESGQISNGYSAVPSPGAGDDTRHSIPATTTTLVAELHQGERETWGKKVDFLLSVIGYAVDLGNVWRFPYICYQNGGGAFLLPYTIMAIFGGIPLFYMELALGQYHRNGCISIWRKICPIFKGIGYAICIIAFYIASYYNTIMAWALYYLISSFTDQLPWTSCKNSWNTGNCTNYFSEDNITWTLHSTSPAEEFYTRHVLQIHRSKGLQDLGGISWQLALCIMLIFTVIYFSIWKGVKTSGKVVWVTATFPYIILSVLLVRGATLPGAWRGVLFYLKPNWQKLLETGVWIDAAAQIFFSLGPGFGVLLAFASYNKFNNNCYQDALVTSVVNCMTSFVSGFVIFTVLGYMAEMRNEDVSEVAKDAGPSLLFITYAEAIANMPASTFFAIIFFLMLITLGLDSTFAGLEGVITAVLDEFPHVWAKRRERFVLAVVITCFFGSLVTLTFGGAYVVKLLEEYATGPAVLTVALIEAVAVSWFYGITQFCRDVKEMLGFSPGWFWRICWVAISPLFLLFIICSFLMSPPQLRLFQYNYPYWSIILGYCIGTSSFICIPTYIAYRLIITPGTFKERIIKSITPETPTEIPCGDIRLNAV
pIC50: −log10 of the molar value.
Decision: pIC50 compared against 6; not below it gives Y, below it gives N.

Worked examples follow.
Query: Please indicate if the recorded pIC50 for CNCC[C@H](c1cccc(Cl)c1)N1C(=O)C(C)(C)c2cccc(F)c21 meets or exceeds 6.
Response: Y

Query: Please indicate if the recorded pIC50 for CNCC[C@H](c1cc(F)cc(Cl)c1)N1C(=O)C(C)(C)c2cccc(F)c21 meets or exceeds 6.
Response: N

Others:
Query: Please indicate if the recorded pIC50 for CNCC[C@H](c1ccccc1)N1C(=O)C2(CCCCC2)c2ccccc21 meets or exceeds 6.
Response: N

Query: Please indicate if the recorded pIC50 for CNCC[C@H](c1ccccc1)N1C(=O)C(C)(C)c2cccc(F)c21 meets or exceeds 6.
Response: N

Query: Please indicate if the recorded pIC50 for CNCCC(Oc1ccccc1OC)c1ccccc1 (stereo not drawn) [NISOXETINE] meets or exceeds 6.
Response: Y

Query: Please indicate if the recorded pIC50 for CNCC[C@H](c1cccc(F)c1)N1C(=O)C2(CCCCC2)c2ccccc21 meets or exceeds 6.
Response: N

Query: Please indicate if the recorded pIC50 for CNCC[C@@H](c1ccccc1)N1C(=O)C(C)(C)c2ccccc21 meets or exceeds 6.
Response: N

Query: Please indicate if the recorded pIC50 for CNCC[C@H](c1cccc(F)c1)N1C(=O)C(C)(C)c2cccc(F)c21 meets or exceeds 6.
Response: N

Query: Please indicate if the recorded pIC50 for CNCC[C@@H](c1ccccc1)N1C(=O)C2(CCCCC2)c2ccccc21 meets or exceeds 6.
Response: N

Query: Please indicate if the recorded pIC50 for CNCC[C@H](c1cc(F)cc(F)c1)N1C(=O)C(C)(C)c2cccc(F)c21 meets or exceeds 6.
Response: Y

Query: Please indicate if the recorded pIC50 for CNCCC(c1ccccc1)n1ccc2ccccc21 (stereo not drawn) meets or exceeds 6.
Response: Y

###

target: Sodium-dependent dopamine transporter (Homo sapiens); experiment: Displacement of [3H]WIN-35428 from human recombinant DAT expressed in CHO cells at 1 uM; type: cell-based
Decision: Activity compared against 7%; not below it gives criterion met, below it gives criterion not met.

Query: Please indicate if the recorded Activity for CNCC[C@H](c1cccc(Cl)c1)N1C(=O)C(C)(C)c2cccc(F)c21 meets or exceeds 7%.
Response: criterion met

Query: Please indicate if the recorded Activity for CNCC[C@@H](c1ccccc1)N1C(=O)C2(CCCCC2)c2ccccc21 meets or exceeds 7%.
Response: criterion not met

Others:
Query: Please indicate if the recorded Activity for CNCC[C@@H](c1cccc(F)c1)N1C(=O)C2(CCCCC2)c2ccccc21 meets or exceeds 7%.
Response: criterion not met

Query: Please indicate if the recorded Activity for CNCC[C@H](c1ccccc1)N1C(=O)C(C)(C)c2cccc(F)c21 meets or exceeds 7%.
Response: criterion not met

###

target: Sodium-dependent dopamine transporter (Homo sapiens) (UniProt Q01959); assay: Displacement of [3H]WIN-35428 from human recombinant DAT expressed in CHO cells at 1 uM; type: cell-based
Sequence (Q01959 whole entry): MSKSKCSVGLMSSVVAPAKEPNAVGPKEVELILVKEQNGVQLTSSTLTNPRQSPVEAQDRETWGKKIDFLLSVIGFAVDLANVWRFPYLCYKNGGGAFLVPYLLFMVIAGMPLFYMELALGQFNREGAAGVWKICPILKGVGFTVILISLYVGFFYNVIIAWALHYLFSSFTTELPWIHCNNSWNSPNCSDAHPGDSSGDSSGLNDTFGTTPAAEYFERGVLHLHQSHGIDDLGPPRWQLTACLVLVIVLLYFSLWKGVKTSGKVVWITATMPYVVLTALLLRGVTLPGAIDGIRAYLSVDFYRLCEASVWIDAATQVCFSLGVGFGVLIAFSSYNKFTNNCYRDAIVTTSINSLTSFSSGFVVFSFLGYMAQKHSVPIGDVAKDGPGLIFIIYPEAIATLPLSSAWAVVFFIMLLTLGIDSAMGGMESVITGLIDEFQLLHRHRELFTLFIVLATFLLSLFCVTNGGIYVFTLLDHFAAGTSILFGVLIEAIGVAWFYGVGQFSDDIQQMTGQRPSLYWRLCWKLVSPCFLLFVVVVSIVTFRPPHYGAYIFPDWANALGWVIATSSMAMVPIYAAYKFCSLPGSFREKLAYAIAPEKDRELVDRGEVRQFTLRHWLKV
Metric name: Activity (%)
// return numeric value only (unit: %, not printed)

Below are worked cases with known answers.
Query: Answer with reported Activity of CNCC[C@H](c1cccc(F)c1)N1C(=O)C(C)(C)c2cccc(F)c21
Response: 7

Query: Answer with reported Activity of CNCC[C@H](c1ccccc1)N1C(=O)C2(CCCCC2)c2ccccc21
Response: 26

Query: Answer with reported Activity of CNCC[C@H](c1cc(F)cc(Cl)c1)N1C(=O)C(C)(C)c2cccc(F)c21
Response: 0

Query: Answer with reported Activity of CNCC[C@H](c1cc(F)cc(F)c1)N1C(=O)C(C)(C)c2cccc(F)c21
Response: 0

Query: Answer with reported Activity of CNCCC(c1ccccc1)n1ccc2ccccc21 (stereo not drawn)
Response: 44

Query: Answer with reported Activity of CNCC[C@H](c1cccc(F)c1)N1C(=O)C2(CCCCC2)c2ccccc21
Response: 20

Others:
Query: Answer with reported Activity of CNCC[C@H](c1ccccc1)N1C(=O)C(C)(C)c2ccccc21
Response: 0

Query: Answer with reported Activity of CNCC[C@@H](c1ccccc1)N1C(=O)C(C)(C)c2ccccc21
Response: 3
